Data origin, for the record: patent US11339383B2

Below, each of the molecules is paired with its reported Mini Gs basal Tm (GDP-bound state, DSF) value.
Test: Thermostability of GDP-bound mini G proteins by differential scanning fluorimetry (DSF)
Type: physicochemical
Conditions: 1 mM GDP, SYPRO-orange, no receptor

Guide cases for Mini Gs basal Tm (GDP-bound state, DSF), answers given:
Mini Gs169: A249D-S252D-SIII- (mutation list truncated in table) (protein, MINI GS169) MGHHHHHHANKKIEKQLQKDKQVYRATHRLLLLGAGESGKSTIVKQMRILHGGGGGETKFQVDKVNFHMFDVGGQRDERRKWIQCFNDVTAIIFVVDSSDYNRLQEALNDFKSIWNNRWLRTISVILFLNKQDLLAEKVLAGKSKIEDYFPEFARYTTPEDATPEPGEDPRVTRAKYFIRDEFLRISTASGDGRHYCYPHFTCAVDTENIRRVFNDCRDIIQRMHLRQYELL
67.1 ± 0.0 (n = 3) ° C.
Mini Gs183: G49D-E50N-A249D-S252D-SIII-L272D (protein, MINI GS183, G49D-E50N-A249D-S252D-SIII-L272D) MGHHHHHHANKKIEKQLQKDKQVYRATHRLLLLGADNSGKSTIVKQMRILHGGGGGETKFQVDKVNFHMFDVGGQRDERRKWIQCFNDVTAIIFVVDSSDYNRLQEALNDFKSIWNNRWLRTISVILFLNKQDLLAEKVLAGKSKIEDYFPEFARYTTPEDATPEPGEDPRVTRAKYFIRDEFLRISTASGDGRHYCYPHFTCAVDTENIRRVFNDCRDIIQRMHLRQYELL
72.5 ± 0.0 (n = 3) ° C.

--- query ---
Exercise: Quick check: Mini Gs basal Tm (GDP-bound state, DSF) of Mini Gs340: mini Gs199 with I372A (protein, MINI GS340, mini Gs199 with I372A) MGHHHHHHANKKIEKQLQKDKQVYRATHRLLLLGADNSGKSTIVKQMRILHGGGGGGGGTSGIFETKFQVDKVNFHMFDVGGQRDERRKWIQCFNDVTAIIFVVDSSDYNRLQEALNDFKSIWNNRWLRTISVILFLNKQDLLAEKVLAGKSKIEDYFPEFARYTTPEDATPEPGEDPRVTRAKYFIRDEFLRISTASGDGRHYCYPHFTCAVDTENARRVFNDCRDIIQRMHLRQYELL ?
Solution: 66.6 ± 0.1 (n = 3) ° C.
